Just for reference, PubChem BioAssay AID1996 is where these values come from.

reported conditions: buffer; pH 7.4; 200.0 µM
Parameter class (string): assigned from measured solubility kinetic. Ranges: b0: < 2 µg/mL; b1: ≥ 2 µg/mL and < 30 µg/mL; b2: ≥ 30 µg/mL

compound | category
CCC1(C)Cc2ccccc2-c2nc(SCC(N)=O)[nH]c(=O)c21 (centres undefined) | b0
CC(C)(C)c1ccc(N=C2SCC(=O)N2Cc2cccs2)cc1 | b0
CCS(=O)(=O)N1CCC(C(=O)Nc2cccc(F)c2)CC1 | b2
COc1cc(NC(=O)COC(C)=O)cc(OC)c1OC | b2
CN1C(=O)c2ccccc2Sc2ccc(C(=O)O)cc21 | b2
N#CC1(NC(=O)COc2cccnc2[N+](=O)[O-])CCCCC1 | b2
CC(C)(C)C(=O)NC1(C(F)(F)F)NC(=O)N(c2ccccc2F)C1=O (centres undefined) | b2
Clc1ccc2nc(-c3ccccc3)nc(C(Cl)Cl)c2c1 | b0
CCCCS(=O)(=O)N1CCCC(C(=O)N2CCOCC2)C1 (centres undefined) | b2
Cl.O=C(O)CC1NCCc2ccccc21 (centres undefined) | b2
CCn1c2ccccc2c2cc(NC(=O)c3ccc(=O)oc3)ccc21 | b0
CCCn1c(=N)n(CC(O)c2ccc(C)cc2)c2ccccc21.Cl (centres undefined) | b2
Cc1csc(SCC(=O)NC2CCS(=O)(=O)C2)n1 (centres undefined) | b2
COc1ccc(C(=O)Cn2c(=O)oc3ccc(C)cc32)cc1 | b0
O=C(Nc1ccc(OCC(F)(F)C(F)F)cc1)c1ccncc1 | b2
COC(=O)c1cccc(NC(=O)CC2C(=O)NCCN2C(=O)Nc2cc(C)cc(C)c2)c1 (centres undefined) | b1
NC(=O)c1cccc(NC(=O)Nc2ccc(Cl)cc2)c1 | b1
O=C(Nc1ccccc1O)c1csc2c1CCCC2 | b1
CC(=O)N(CCS(=O)(=O)c1ccc(Cl)cc1)Cc1cccs1 | b2
O=C(COc1cccnc1[N+](=O)[O-])Nc1ccc(Cl)cc1F | b1
Cc1ccc(NC(=O)c2cc(C)nc3ccccc23)c(C)c1 | b1
Cc1ccc(NC(=O)Nc2ccc(Cl)c(Cl)c2)nc1 | b0
Cn1ccsc1=NC(=O)c1ccc(S(C)(=O)=O)cc1 | b2
Cn1c(=O)c2c(ncn2CC(=O)Nc2nccs2)n(C)c1=O | b1
